Data credit: PubChem BioAssay AID1963842

System: 677734-321-R-J1-PDC complex spheroid viability
experimentNotes: Anticancer human tumor 677734-321-R-J1-PDC patient-derived soft tissue sarcoma cell line growth inhibition [POLQ]
experimentalConditions: second compound 1 µM; first compound 0.00316 µM; active compounds read low

{"molecule": "C=CCn1c(=O)c2cnc(Nc3ccc(N4CCN(C)CC4)cc3)nc2n1-c1cccc(C(C)(C)O)n1 + Cc1cccc(N(C)C(=O)C2C(O)CCN2c2nc(C)cc(C(F)(F)F)c2C#N)c1", "viability, T/C": "117%"}
{"molecule": "C=CCn1c(=O)c2cnc(Nc3ccc(N4CCN(C)CC4)cc3)nc2n1-c1cccc(C(C)(C)O)n1 + Nc1ccc(C#CCN(C(=O)Cc2ncc(C(F)(F)F)cc2C(F)(F)F)c2ccc(F)cc2)nn1", "viability, T/C": "106%"}
{"molecule": "CC[C@@]1(O)C(=O)OCc2c1cc1n(c2=O)Cc2cc3c(CN(C)C)c(O)ccc3nc2-1 + Cc1cccc(N(C)C(=O)C2C(O)CCN2c2nc(C)cc(C(F)(F)F)c2C#N)c1", "viability, T/C": "105%"}
{"molecule": "CC[C@@]1(O)C(=O)OCc2c1cc1n(c2=O)Cc2cc3c(CN(C)C)c(O)ccc3nc2-1 + COC1C(OC(N)=O)C(O)C(Oc2ccc3c(O)c(NC(=O)c4ccc(O)c(CC=C(C)C)c4)c(=O)oc3c2C)OC1(C)C", "viability, T/C": "106%"}

---

Tested on: 677734-321-R-J1-PDC complex spheroid viability
experimentNotes: Anticancer human tumor 677734-321-R-J1-PDC cell line growth inhibition [POLQ];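 also: spheroids exposed to compounds for one week; 100% = vehicle DMSO treated spheroids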
experimentalConditions: second compound 3.16 µM; first compound 0.001 µM; active compounds read low
Method: Multicellular complex tumor spheroid response to Polymerase (POL) inhibitors (novobiocin, ART-558, RP6685) in combination with a variety of drugs and investigational agents in selected tumor cell lines The POL inhibitors (novobiocin, ART-558, and RP6685) were evaluated both individually and in combination with standard of care and investigational anticancer small molecules within a complex spheroid model of solid tumors. . […]
quantityKind: viability, T/C (%)

{"molecule": "Cn1ncnc1[C@H]1c2n[nH]c(=O)c3cc(F)cc(c23)N[C@@H]1c1ccc(F)cc1 + COC1C(OC(N)=O)C(O)C(Oc2ccc3c(O)c(NC(=O)c4ccc(O)c(CC=C(C)C)c4)c(=O)oc3c2C)OC1(C)C", "observedResult": 94.7}
{"molecule": "CC[C@@]1(O)C(=O)OCc2c1cc1n(c2=O)Cc2cc3c(CN(C)C)c(O)ccc3nc2-1 + COC1C(OC(N)=O)C(O)C(Oc2ccc3c(O)c(NC(=O)c4ccc(O)c(CC=C(C)C)c4)c(=O)oc3c2C)OC1(C)C", "observedResult": 108}
{"molecule": "CC[C@@]1(O)C(=O)OCc2c1cc1n(c2=O)Cc2cc3c(CN(C)C)c(O)ccc3nc2-1 + Cc1cccc(N(C)C(=O)C2C(O)CCN2c2nc(C)cc(C(F)(F)F)c2C#N)c1", "observedResult": 100}
{"molecule": "Cn1ncnc1[C@H]1c2n[nH]c(=O)c3cc(F)cc(c23)N[C@@H]1c1ccc(F)cc1 + Cc1cccc(N(C)C(=O)C2C(O)CCN2c2nc(C)cc(C(F)(F)F)c2C#N)c1", "observedResult": 98.7}
{"molecule": "Cn1ncnc1[C@H]1c2n[nH]c(=O)c3cc(F)cc(c23)N[C@@H]1c1ccc(F)cc1 + Nc1ccc(C#CCN(C(=O)Cc2ncc(C(F)(F)F)cc2C(F)(F)F)c2ccc(F)cc2)nn1", "observedResult": 95.2}
{"molecule": "CC[C@@]1(O)C(=O)OCc2c1cc1n(c2=O)Cc2cc3c(CN(C)C)c(O)ccc3nc2-1 + Nc1ccc(C#CCN(C(=O)Cc2ncc(C(F)(F)F)cc2C(F)(F)F)c2ccc(F)cc2)nn1", "observedResult": 102}
